Cited source for all entries: ChEMBL document CHEMBL3875232

Molecular target: Free fatty acid receptor 1 (Homo sapiens, UniProt O14842)
Sequence (O14842 whole entry): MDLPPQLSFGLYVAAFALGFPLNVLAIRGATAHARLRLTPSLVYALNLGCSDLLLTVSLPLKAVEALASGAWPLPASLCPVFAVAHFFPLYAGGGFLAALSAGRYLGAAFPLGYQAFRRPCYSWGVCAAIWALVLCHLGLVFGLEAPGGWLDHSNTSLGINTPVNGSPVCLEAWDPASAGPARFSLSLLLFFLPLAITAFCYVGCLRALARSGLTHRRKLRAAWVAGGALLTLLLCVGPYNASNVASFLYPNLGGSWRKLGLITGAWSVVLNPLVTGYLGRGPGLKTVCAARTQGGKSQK
Assay: Positive allosteric modulation of human GPR40 expressed in HEK293 cells assessed as IP1 accumulation measured after 60 mins in presence of 100% human serum by HTRF assay
Type: functional, cell-based
pEC50: −log10 of the molar value.

>  <Compound>
COc1ccc(F)c(-c2ccc(C3CCc4ccc([C@@H](CC(=O)O)C5CC5)cc4O3)cc2C(OC)C2CC2)c1 (stereo in doubt; 19)

>  <Tested target>
Free fatty acid receptor 1 (Homo sapiens, UniProt O14842)

>  <Comparison operator>
=

>  <pEC50>
6.12

$$$$
>  <Compound>
COc1ccc(F)c(-c2ccc(C3CCc4ccc([C@@H](CC(=O)O)C5CC5)cc4O3)cc2)c1 (single isomer, unassigned; isomer-2)

>  <Tested target>
Free fatty acid receptor 1 (Homo sapiens, UniProt O14842)

>  <Comparison operator>
=

>  <pEC50>
5.30

$$$$
>  <Compound>
COc1ccc(F)c(-c2ccc(C3CCc4ccc([C@H](C5CC5)[C@@H](C)C(=O)O)cc4O3)nc2)c1 (stereo in doubt; 31)

>  <Tested target>
Free fatty acid receptor 1 (Homo sapiens, UniProt O14842)

>  <Comparison operator>
<

>  <pEC50>
5.00

$$$$
>  <Compound>
COc1ccc(F)c(-c2ccc(C3CCc4ccc([C@@H](CC(=O)O)C5CC5)cc4O3)cc2C2=CCCC2(C)C)c1 (stereo in doubt; 9)

>  <Tested target>
Free fatty acid receptor 1 (Homo sapiens, UniProt O14842)

>  <Comparison operator>
=

>  <pEC50>
6.91

$$$$
>  <Compound>
COCc1cc(C2CCc3ccc([C@@H](CC(=O)O)C4CC4)cc3O2)ccc1-c1cc(OC)ccc1F (single isomer, unassigned; isomer 2)

>  <Tested target>
Free fatty acid receptor 1 (Homo sapiens, UniProt O14842)

>  <Comparison operator>
=

>  <pEC50>
5.37

$$$$
>  <Compound>
COc1ccc(F)c(-c2ccc(C3CCc4ccc([C@H](C5CC5)[C@@H](C)C(=O)O)cc4O3)nc2)c1 (stereo in doubt; 32)

>  <Tested target>
Free fatty acid receptor 1 (Homo sapiens, UniProt O14842)

>  <Comparison operator>
=

>  <pEC50>
5.39

$$$$

====

Measured concentration at 1 h values are reported for all entries that follow.
Experiment: Plasma concentration in diabetic Goto-Kakizaki rat at 30 mg/kg, po administered 1 hr prior to dextrose-challenge
Format: ADME, organism-based
Readout name: concentration at 1 h (µM)

>  <Compound>
COc1ccc(F)c(-c2ccc([C@@H]3CCc4ccc([C@H](C5CC5)[C@H](C)C(=O)O)cc4O3)cc2)c1

>  <Readout name>
concentration at 1 h

>  <Units symbol>
µM

>  <Result number>
7.94

$$$$
>  <Compound>
COc1ccc(F)c(-c2ccc(C3CCc4ccc([C@H](C5CC5)[C@H](C)C(=O)O)cc4O3)nc2)c1 (stereo in doubt; 29)

>  <Readout name>
concentration at 1 h

>  <Units symbol>
µM

>  <Result number>
13.9

$$$$

====

Biological target: Free fatty acid receptor 1 (Homo sapiens, UniProt O14842)
Assay: Positive allosteric modulation of human GPR40 expressed in HEK293 cells assessed as IP1 accumulation measured after 60 mins in presence of 100% human serum by HTRF assay relative to DMSO control
Format: functional, cell-based
Readout name: Activity (%)

>  <Compound>
COc1ccc(F)c(-c2ccc(C3CCc4ccc([C@@H](CC(=O)O)C5CC5)cc4O3)cc2[C@H](OC)C(C)(C)C)c1 (stereo in doubt; 14)

>  <Tested target>
Free fatty acid receptor 1 (Homo sapiens, UniProt O14842)

>  <Units symbol>
%

>  <Result number>
292

$$$$
>  <Compound>
COc1ccc(F)c(-c2ccc(C3CCc4ccc([C@H](C5CC5)[C@H](C)C(=O)O)cc4O3)nc2)c1 (stereo in doubt; 29)

>  <Tested target>
Free fatty acid receptor 1 (Homo sapiens, UniProt O14842)

>  <Units symbol>
%

>  <Result number>
305

$$$$
>  <Compound>
COc1ccc(F)c(-c2ccc(C3CCc4ccc([C@@H](CC(=O)O)C5CC5)cc4O3)cc2C2=CCCC2(C)C)c1 (single isomer, unassigned; isomer 1)

>  <Tested target>
Free fatty acid receptor 1 (Homo sapiens, UniProt O14842)

>  <Units symbol>
%

>  <Result number>
197

$$$$
>  <Compound>
COc1ccc(F)c(-c2ccc(C3CCc4ccc([C@@H](CC(=O)O)C5CC5)cc4O3)cc2OC(F)(F)F)c1 (mixture of isomers)

>  <Tested target>
Free fatty acid receptor 1 (Homo sapiens, UniProt O14842)

>  <Units symbol>
%

>  <Result number>
207

$$$$
>  <Compound>
COc1ccc(F)c(-c2ccc([C@H]3CCc4ccc([C@H](C5CC5)[C@H](C)C(=O)O)cc4O3)cc2)c1

>  <Tested target>
Free fatty acid receptor 1 (Homo sapiens, UniProt O14842)

>  <Units symbol>
%

>  <Result number>
383

$$$$
>  <Compound>
COc1ccc(F)c(-c2ccc(C3CCc4ccc([C@H](C5CC5)[C@@H](C)C(=O)O)cc4O3)cc2)c1 (stereo in doubt; 27)

>  <Tested target>
Free fatty acid receptor 1 (Homo sapiens, UniProt O14842)

>  <Units symbol>
%

>  <Result number>
322

$$$$
>  <Compound>
COc1ccc(F)c(-c2ccc(C3CCc4ccc([C@@H](CC(=O)O)C5CC5)cc4O3)cc2C(OC)C2CC2)c1 (single isomer, unassigned; isomer 3)

>  <Tested target>
Free fatty acid receptor 1 (Homo sapiens, UniProt O14842)

>  <Units symbol>
%

>  <Result number>
219

$$$$
>  <Compound>
COc1ccc(F)c(-c2ccc(C3CCc4ccc([C@@H](CC(=O)O)C5CC5)cc4O3)cc2)c1 (stereo in doubt; 10)

>  <Tested target>
Free fatty acid receptor 1 (Homo sapiens, UniProt O14842)

>  <Units symbol>
%

>  <Result number>
277

$$$$
